PMM TC50 overview
Test system: PMM (primary mouse macrophages)
Test: Toxicity against PMM
Type: cell-based
Conditions: PMM
The answer is to be given in µM; state only the numeric part.

Some compounds with known PMM TC50 results, for comparison:
# compound, PMM TC50 / µM
records = [
    ("CCCN(c1ccc(F)cc1)c1c(-c2ccccn2)nc2ccccn12 [OSA_000982]", 2),
    ("Cc1ccn2cc(-c3ccccn3)nc2c1 [OSA_001030]", 64),
    ("Fc1ccc(-c2c(-c3ccccn3)nc3n2CCC3)cc1 [OSA_001053]", 32),
    ("COc1cc(-c2c(-c3ccccn3)nc3n2CCC3)ccc1C#N [OSA_001076]", 64),
    ("N#Cc1ccc(-c2c(-c3ccccn3)nc3n2CCC3)cc1 [OSA_000975]", 64),
    ("COc1ccc2nc(-c3ccccn3)c(N(C)c3ccc(F)cc3)n2c1 [OSA_000980]", 8),
    ("Fc1ccc(-c2c(-c3ccccn3)nc3ccccn23)cc1 [OSA_000859]", 32),
    ("NC(=O)c1ccc(-n2c(-c3ccccn3)nc3ccccc32)cc1 [OSA_000989]", 64),
    ("Fc1ccc(Nc2c(-c3ccccn3)nc3sccn23)cc1 [OSA_000984]", 32),
]

Could you now look at the following compound, please?
Output PMM TC50 of c1ccc(-c2nc3n(c2-c2ccncc2)CCC3)nc1 [OSA_001072] 64
